Value source: ChEMBL document CHEMBL1143658

Target: Cannabinoid receptor 2 (Rattus norvegicus, UniProt Q9QZN9)
Sequence (Q9QZN9 whole entry): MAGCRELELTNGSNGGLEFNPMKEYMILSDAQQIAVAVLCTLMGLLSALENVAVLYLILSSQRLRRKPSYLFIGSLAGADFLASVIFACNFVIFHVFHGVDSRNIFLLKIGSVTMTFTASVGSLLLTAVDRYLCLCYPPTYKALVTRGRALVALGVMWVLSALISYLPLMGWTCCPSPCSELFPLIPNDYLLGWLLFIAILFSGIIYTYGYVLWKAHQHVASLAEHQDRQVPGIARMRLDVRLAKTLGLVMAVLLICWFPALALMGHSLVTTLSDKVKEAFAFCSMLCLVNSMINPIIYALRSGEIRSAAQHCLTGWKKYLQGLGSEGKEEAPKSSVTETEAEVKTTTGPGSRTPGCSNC
Assay: Agonist activity at rat CB2 receptor

| compound | EC50 [nM] |
| --- | --- |
| O=C(NCC1CCOCC1)c1cnc(Nc2ccc(Cl)cc2Cl)nc1C(F)(F)F [GW842166X] | 91 |

* * *

Assay: Drug concentration in blood of rat FCA model of inflammatory pain at 0.03 mg/kg, po after 1hr
Type: ADME, organism-based
Set-up: dose 0.03 mg/kg, route oral
Conditions: read-out: Activity
assay_metric: concentration at 1 h (nM)

| molecule | assay_metric | unit_symbol | readout_number |
| --- | --- | --- | --- |
| O=C(NCC1CCOCC1)c1cnc(Nc2ccc(Cl)cc2Cl)nc1C(F)(F)F [GW842166X] | concentration at 1 h | nM | 30 |
